# maps each entry to its pIC50
# Tested target: TXA2 synthetase (Homo sapiens, UniProt P24557)
# Construct: human platelet microsome was used
# Sequence (P24557 whole entry): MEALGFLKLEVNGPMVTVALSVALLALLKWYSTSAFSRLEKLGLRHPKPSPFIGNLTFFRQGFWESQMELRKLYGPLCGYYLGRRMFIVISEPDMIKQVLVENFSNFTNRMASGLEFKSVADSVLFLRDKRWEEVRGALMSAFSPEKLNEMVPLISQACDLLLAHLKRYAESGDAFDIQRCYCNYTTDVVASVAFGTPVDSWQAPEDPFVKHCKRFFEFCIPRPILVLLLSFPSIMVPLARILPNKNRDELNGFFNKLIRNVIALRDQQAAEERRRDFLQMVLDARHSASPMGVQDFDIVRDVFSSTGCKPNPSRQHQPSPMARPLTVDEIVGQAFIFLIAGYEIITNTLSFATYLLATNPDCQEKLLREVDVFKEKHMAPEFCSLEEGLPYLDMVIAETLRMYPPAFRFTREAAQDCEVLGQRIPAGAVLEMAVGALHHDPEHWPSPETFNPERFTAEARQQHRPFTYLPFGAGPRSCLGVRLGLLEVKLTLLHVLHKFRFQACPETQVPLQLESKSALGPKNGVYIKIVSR
# Procedure details: inhibition of TXA2 synthetase by the use of human platelet microsome
# Setup conditions: read-out: IC50 (amount necessary to inhibit 50% of TXA2 synthesis) of TXA2 synthetase inhibitory action
Where a name gives a salt, the structure may show the parent alone.
The meaning of pIC50 here: minus log10 of the concentration in molar units.

Some solved entries appear below for comparison.
{"Compound": "Cl.O=c1[nH]nc(OCCCc2ccc(Cl)cc2)c(NCc2cccnc2)c1Br [Compound A, hydrochloride]", "pIC50": 8.00}
{"Compound": "O=c1[nH]nc(OCC[C@H](O)c2ccc(Cl)cc2)c(NCc2cccnc2)c1Br [Compound B, hydrochloride]", "pIC50": 7.70}

API: the following record is the query input.
Record O=c1[nH]nc(OCC[C@@H](O)c2ccc(Cl)cc2)c(NCc2cccnc2)c1Br [Compound C, hydrochloride] , field pIC50: 7.52

====

# System: rabbit platelets
# Procedure details: TXA2 release from rabbit platelets
# Assay type: cell-based
# Setup conditions: Oryctolagus cuniculus, Platelet, 8 min, washed rabbit platelets, stimulated with collagen (10 μg/ml), 1 mM Ca2+, 37° C., read-out: TXA2 release suppressing action: amount necessary for 50% inhibition of TXA2 release
Property: IC50 (nM)
The reply should be a number in nM, with the unit left off.

For record Cl.O=c1[nH]nc(OCCCc2ccc(Cl)cc2)c(NCc2cccnc2)c1Br [Compound A, hydrochloride] the listed IC50 is 9

====

# Procedure details: acute toxicity in dogs
# Setup conditions: dog, in vivo, po, orally administered
Property: LD50

// sample Cl.O=c1[nH]nc(OCCCc2ccc(Cl)cc2)c(NCc2cccnc2)c1Br [Compound A] , its LD50 was ≥ 2000 mg/kg

====

# Procedure details: acute toxicity in rats
# Setup conditions: rat, in vivo, po, orally administered
Property: LD50

Lab note: Cl.O=c1[nH]nc(OCCCc2ccc(Cl)cc2)c(NCc2cccnc2)c1Br [Compound A] gave LD50 of ≥ 2000 mg/kg
